- tgt: Estrogen receptor (Homo sapiens)
- Sequence (P03372 whole entry): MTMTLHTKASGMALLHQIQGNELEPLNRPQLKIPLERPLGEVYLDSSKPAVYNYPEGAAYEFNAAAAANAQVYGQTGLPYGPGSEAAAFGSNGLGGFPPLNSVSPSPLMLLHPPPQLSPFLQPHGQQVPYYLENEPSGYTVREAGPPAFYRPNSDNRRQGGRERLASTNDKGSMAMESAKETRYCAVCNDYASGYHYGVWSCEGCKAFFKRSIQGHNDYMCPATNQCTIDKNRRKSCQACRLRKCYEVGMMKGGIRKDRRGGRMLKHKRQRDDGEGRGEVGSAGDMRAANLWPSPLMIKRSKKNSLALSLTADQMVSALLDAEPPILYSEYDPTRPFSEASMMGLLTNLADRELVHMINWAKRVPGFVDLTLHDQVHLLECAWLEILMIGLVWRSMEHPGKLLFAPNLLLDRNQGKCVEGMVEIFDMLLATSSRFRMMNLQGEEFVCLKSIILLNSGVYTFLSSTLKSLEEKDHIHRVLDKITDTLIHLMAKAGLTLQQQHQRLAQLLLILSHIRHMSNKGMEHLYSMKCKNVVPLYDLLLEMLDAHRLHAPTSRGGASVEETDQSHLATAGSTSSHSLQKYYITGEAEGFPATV
The source made the active and inactive calls.
Kindly supply the reported IC50 values for the records listed here.

Below: 4 molecules and their reported IC50.
| molecule | IC50 |
| --- | --- |
| Cc1ccc(C)c(SCC(=O)OCC(=O)c2ccco2)c1 | > 50 µM (not active) |
| COC(=O)/C(=C\Nc1ccc(Cl)c2ccccc12)c1ncc(C(F)(F)F)cc1Cl | > 50 µM (not active) |
| Cc1ccnc(NS(=O)(=O)c2ccc(NC(=O)Cc3cccs3)cc2)n1 | 12.2 µM (active) |
| O=C1NC(c2ccc(Br)cc2)Nc2sc3c(c21)CCC3 (stereo not given) | 19.4 µM (active) |

We now examine a further molecule.
Query block: Query: IC50; subject: O=C(Nc1ccc2nn(-c3ccccc3)nc2c1)c1ccc(Br)o1
Result block: > 50 µM (not active)

Reference for the values: ChEMBL document CHEMBL1201862
